tested-system: Serine-threonine protein phosphatase 2A regulatory subunit (Gallus gallus, UniProt Q8AWE3)
Sequence (Q8AWE3 whole entry): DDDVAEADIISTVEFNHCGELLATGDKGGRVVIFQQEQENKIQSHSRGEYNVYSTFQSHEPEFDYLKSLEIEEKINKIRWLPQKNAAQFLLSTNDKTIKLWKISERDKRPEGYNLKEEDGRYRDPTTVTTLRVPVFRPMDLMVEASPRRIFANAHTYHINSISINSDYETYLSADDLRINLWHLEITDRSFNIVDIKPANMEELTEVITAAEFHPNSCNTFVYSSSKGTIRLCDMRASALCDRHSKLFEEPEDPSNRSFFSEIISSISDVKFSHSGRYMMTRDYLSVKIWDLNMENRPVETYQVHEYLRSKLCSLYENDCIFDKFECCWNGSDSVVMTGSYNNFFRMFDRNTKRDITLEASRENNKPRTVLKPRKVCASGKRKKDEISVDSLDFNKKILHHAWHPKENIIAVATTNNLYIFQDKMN
protocol: Observed inhibition activity against protein phosphatase 2A (PP2A)
measurement-label: pIC50
Bear in mind: pIC50 is minus log10 of a mol/L concentration; give just that figure.

1) C=C1[C@@H](O)[C@@H]2O[C@]3(CC[C@H](/C=C/[C@@H](C)[C@@H]4CC(C)=C[C@@]5(O[C@H](C[C@@](C)(O)C(=O)O)CC[C@H]5O)O4)O3)CC[C@H]2O[C@@H]1[C@@H](O)C[C@H](C)[C@H]1O[C@@]2(CCCCO2)CC[C@H]1C [OKADAIC ACID]
9.35

Now look at this entry.
Exercise: Endpoint output: pIC50 of CC=C1C(=O)N[C@@H](C(=O)O)[C@H](C)C(=O)N[C@@H](CCCNC(=N)N)C(=O)N[C@@H](/C=C/C(C)=C/[C@H](C)[C@H](Cc2ccccc2)OC)[C@H](C)C(=O)N[C@@H](C(=O)O)CCC(=O)N1C . Value?
Solution: 9.70
